- Tested on: MS2 coat protein
- assay_procedure: apparent KD of MS2 coat protein; designed switch direction (-1 OFF switch, 1 ON switch): -1; higher = weaker reporter binding
- condition_set: input ligand: FMN 200 uM
parameter_measured: apparent KD of MS2 coat protein (µM)
Numbers only, in µM.

AGCGCCAUCGUGAGAUGGCGUAUUACAUGAGGAUCACCCAUGUAGGAUAUCGAUUGCUUUGCAGUCGAGAAGGGCAUGUACCAG [JL ENG3 3.80 Mod K] (Eterna round: R96, puzzle: Exclusion NG 3) :: 0.0547
AAUCCUGAAGUUAGGAUAUGAAGUAUCACUACACUUUAGAAGGAACUUGAGGAUCACCCAAGUAGCCGUGAGGC [jl-bmx4.4.65 ViennaUCT mod] (Eterna round: R97, puzzle: Brourd's mod of Exclusion 4) :: 0.068
AGGUCACAUGAGGAUCACCCAUGUGAGGAUAUAGACUCAAGAGCUUCGGCUCUCAAGUCUAGAAGGCGCUAUGA [EX1 #50] (Eterna round: R97, puzzle: Exclusion 1) :: 0.0265
UAAAAGCUAGGAUAUAGAGACAGAAACUUGAGGAUCACCCAAGUGAGUCAAGCUAUGUCGCUAGAAGGAGCGAAAA [Qubetizaa] (Eterna round: R97, puzzle: Exclusion 5) :: 0.278
ACAAGCUUUUUGCUCGUUUACAUGAGGAUCACCCAUGUGUCUUCACGCCCGGGCCCGGGCAAGCCCGGGCCCGGGCG [-47, -77, A 16%] (Eterna round: R97, puzzle: Sensor, turn-off variant 1) :: 0.0456

Quick batch: apparent KD of MS2 coat protein for everything below.
1. GUAAACGAAGAGGAUAUUUGAUAUCAAAGCUUCAAAGAAGGCUUCACAUGAGGAUCACCCAUGUGAUCUUCAAG [Mat - Exclusion 6 - JL Mod - D17] (Eterna round: R97, puzzle: Exclusion 6)
2. UAAGCUACUGUCAGGAUAUCGUAAUUGGUGAACGACGAGAAGGGACAUGAGGAUCACCCAUGUCGAUGACUGGG [Eternabot (L2) Solution 97] (Eterna round: R97, puzzle: Brourd's mod of Exclusion 4)
3. UAAAUUAUUGUAAGGAUAUCAGUCCCGAAAGGGACUGAGAAGGUACAUGAGGAUCACCCAUGUGAAAUAAGAAU [Mod of Zala 15 - Jieux - Brourd's Mod of Exclusion 4] (Eterna round: R97, puzzle: Brourd's mod of Exclusion 4)
4. UUGAAGUCGUCAGGAUAUAGAUUUAAUGUCAUGCGUAUGUUCUUACAUGAGGAUCACCCAUGUCGCUAGAAGGGACUAUAGAUU [JR_ExcNG2_Sub008] (Eterna round: R96, puzzle: Exclusion NG 2)

Response:
1. 0.404
2. 0.386
3. 0.0531
4. 0.0546

----------
- System: MS2 coat protein
- assay_procedure: apparent KD of MS2 coat protein; higher = weaker reporter binding
- condition_set: Eterna round: R107; input ligand: theophylline 2 mM
parameter_measured: apparent KD of MS2 coat protein (nM)
Numbers only, in nM.

AAUAAUAGGUGAUCUUGAGUCGUACCGUAACGAGGACCGGUACGGCCGCCACUCGAACAUGAGGAUCACCCAUGUAUGUAUGAUA [whbob_SS_trypto A_f6] :: 276
UCAUGCAGGUCGGCCGCCACUACACACAUGAGGAUCACCCAUGUAGUUACUGGGUGAAGUGGCAGUAGGACCGGGACCUGCAUAU [Brourdmod08] :: 696

Please state apparent KD of MS2 coat protein for every sequence in the list that follows.
1. UAACAUGAGGAUCACCCAUGUUUGGAGAAACGAGGACCGGUACGGCCGCCACUCGAGGAGUGGAUGAGAAGUGGGAUAGAGUGAU [Same State Trp A GF6]
2. AAAUAAACAUCGGCCGCCACUUACUCAUGAGGUAACAACAUGAGGAUCACCCAUGUUUGAGGAUCAAGGACCGGGAUGUAAUAAA [AstrosSSTryB#1]
3. CAUUGUUAGACGGCCGCCACUUUUGGUUCGGAACGAUCGAUUGGACAUGAGGAUCACCCAUGUGGAAGGACCGGGUCUAAUCAAA [theeternabot_sameState_MS2_Trp_B_20]

Response:
[17.5, 32.9, 265]

Could I get apparent KD of MS2 coat protein for every one of these entries?
1. ACAUGAGGAUCACCCAUGUGCAUCACCCGACGAGGACCGGUACGGCCGCCACUCGGGUAUAUAUUUGCAUCGGGUGAUUUUACGU [#25 Tryptophan A Same State]
2. UGAUGGUUCGGAAGGAGCGUGUAAGAACAAGAACAUGAGGAUCACCCAUGUAUUAAUUUAACACAGGUAGGUCGCCGAGUUAUUG [11.I]
3. ACAUGAGGAUCACCCAUGUAAUUUACAGAAGGAGCGUGAUGGAUCACAGGUAGGUCGCUGUACUGCGAAAGCACUCUCAUGAAUA [JR_Nu_SSArginiA_Sub025]
4. AAUAUUAUGUCGGCCGCCACUUCCCACAAGAGGUGCCUGCACCCACAUGAGGAUCACCCAUGUCGAAGGACCGGGACGCUCAAUU [theeternabot_sameState_MS2_Trp_B_35]
5. GGAUAGGACGGAAGGAGCGACGUGAGGCUAAUGUCCAGUCUUCUACAUGAGGAUCACCCAUGUCAGGUAGGUCGCCGUCCUAUCG [#21 Exclusion - Arginine B]
6. UUUUUUUUGGGAAGGAGCGGGAACAUGUGGAUCUCCCAUGUACAUGAGGAUCACCCAUGUACCCAGGUAGGUCGCUCAUUUUUUU [Exclusion - Arginine B]

Response:
61.6
28.9
19.7
21.6
40.7
37.8

Prompt: Any idea what its apparent KD of MS2 coat protein is? The sequence is GAACAUAUGGAUACUAUUAUGAGCACAGAAGGAGCGAGCGGAAGCUCAGGUAGGUCGCUGGGUAACAUGAGGAUCACCCAUGUUG [XArg-A sub1]
Response: 25.6
